target_or_system: GLP-1 receptor (GLP-1R), primary cAMP assay cell line (human, UniProt P43220 24-463)
assay_info: cell-based or functional assay
Starred links: 1 amine or outer side, 2 acyl side, 3 side chain; linkers in the order of their positions; H or OH if unused. Non-standard residues stand in square brackets, D forms with d. Groups on a side chain read outwards from the residue. Primed or numbered codes have the meaning given here. No end group written: not given here. *: point of attachment. γGlu = O=C(O)[C@H](CCC(=O)[*:2])N[*:1]; αMeF = C[C@](N)(Cc1ccccc1)C(=O)O; αMeK = C[C@](N)(CCCCN)C(=O)O; Lauroyl = CCCCCCCCCCCC(=O)*; αMeS = C[C@](N)(CO)C(=O)O; PEG2′ = not defined here; Aib = CC(C)(N)C(=O)O
Note to self: values exactly at 0.07 nM are YES. So cAMP Primary assay EC50, n1 at or above 0.07 nM is YES, below is NO.

Check out these entries, answers already filled in.
binder	discrete_label
H[Aib]EGS[αMeF]TSDV[αMeS]SYK([PEG2′-PEG2′-γGlu-Lauroyl])EK([PEG2′-PEG2′-γGlu-Lauroyl])EAA[αMeK]EFIAK([PEG2′-PEG2′-γGlu-Lauroyl])VVEGG-NH2 [SEQ ID NO: 467]	NO
H[Aib]EGS[αMeF]TSDVSK([PEG2′-PEG2′-γGlu-Lauroyl])YLEGK([PEG2′-PEG2′-γGlu-Lauroyl])AA[αMeK]EFIAK([PEG2′-PEG2′-γGlu-Lauroyl])VVEGG-NH2 [SEQ ID NO: 460]	NO
H[Aib]EGS[αMeF]TSDV[αMeS]SYK([PEG2′-PEG2′-γGlu-Lauroyl])EGK([PEG2′-PEG2′-γGlu-Lauroyl])AA[αMeK]EFIAFK([PEG2′-PEG2′-γGlu-Lauroyl])VEGG-NH2 [SEQ ID NO: 484]	YES
H[Aib]EGS[αMeF]TSDK([PEG2′-PEG2′-γGlu-Lauroyl])SSYLEGEAA[αMeK]K([PEG2′-PEG2′-γGlu-Lauroyl])FIK([PEG2′-PEG2′-γGlu-Lauroyl])FVVEGG-NH2 [SEQ ID NO: 442]	NO

INPUT: Does the reported cAMP Primary assay EC50, n1 for H[Aib]EGS[αMeF]TSDVSK([PEG2′-PEG2′-γGlu-Lauroyl])YLEGEAA[αMeK]K([PEG2′-PEG2′-γGlu-Lauroyl])FIK([PEG2′-PEG2′-γGlu-Lauroyl])FVVEGG-NH2 [SEQ ID NO: 446] fall at or above the 0.07 nM mark?
OUTPUT: YES

INPUT: Does the reported cAMP Primary assay EC50, n1 for H[Aib]EGS[αMeF]TSDVSK([PEG2′-PEG2′-γGlu-Lauroyl])YLEGEK([PEG2′-PEG2′-γGlu-Lauroyl])A[αMeK]EFIK([PEG2′-PEG2′-γGlu-Lauroyl])FVVEGG-NH2 [SEQ ID NO: 445] fall at or above the 0.07 nM mark?
OUTPUT: YES

INPUT: Does the reported cAMP Primary assay EC50, n1 for H[Aib]EGS[αMeF]TSDV[αMeS]SYK([PEG2′-PEG2′-γGlu-Lauroyl])EGEK([PEG2′-PEG2′-γGlu-Lauroyl])A[αMeK]EFIAK([PEG2′-PEG2′-γGlu-Lauroyl])VVEGG-NH2 [SEQ ID NO: 469] fall at or above the 0.07 nM mark?
OUTPUT: NO
